TEST_SYSTEM: RSV F on RSV subtype A virus (mKate-RSV A2) (respiratory syncytial virus A2, UniProt P03420 26-574)
ASSAY_INFO: cell-based or functional assay
# Lookup of reported Neut IC50 subtype A keyed by entry
Phrase the answer as number then unit, nothing more needed.

Solved entries (count: 4):
BINDER: ADI-19424 (antibody, V domains shown, full-length IgG) VH: EVQLLESGGGLVQPGGSLRLSCAASGFTVSSNYMSWVRQAPGKGLEWVSDIYSGGRTDYADSVKGRFTISRDNSKNTLDLQMNSLRAEDTAVYYCARETLGMDHWYFDLWGRGTLVTVSS VL: QPGLTQPPSVSVAPGKTARITCGGNNIGSKSVHWYQQKPGQAPVLVVYDDSDRPSGIPERFSGSNSGNTATLTISRVEAGDEADYYCQVWDSTSDHPVFGGGTKLTVL
Neut IC50 subtype A: 0.08 µg/mL
--
BINDER: ADI-25549 (antibody, V domains shown, full-length IgG) VH: QVQLVQSGGGLVKPGGSLRLSCAASGFTFSSYSMNWVRQAPGKGLEWVSSISSSSSYIYYADSVKGRFTISRDNAKNSLYLQMNSLRAEDTAVYYCARVSSGWYGGGAYYFDYWGQGTLVTVSS VL: QSVVTQPPSVSGAPGQRVTISCTGSSSNIGAGYDVHWYQQLPGTAPKLLIYGNSNRPSGVPDRFSGSKSGTSASLAITGLQAEDEADYYCQSYDSSLSALYVFGTGTKVTVL
Neut IC50 subtype A: 11.5 µg/mL
--
BINDER: ADI-24805 (antibody, V domains shown, full-length IgG; also called Ab 370) VH: QVQLVQSGGGLVKPGGSLRLSCAASGFTFSSYSMNWVRQAPGKGLEWVSSISSSSSYIYYADSVKGRFTISRDNAKNSLYLQMNSLRAEDTAVYYCAREGYSSSSGYYYYMDVWGKGTTVTVSS VL: QSVLTQPPSVSGAPGQRVTISCTGSSSNIGAGYDVHWYQQLPGTAPKLLIYGNSNRPSGVPDRFSGSKSGTSASLAITGLQAEDEADYYCQSYDSSLSGSVFGTGTKVTVL
Neut IC50 subtype A: 0.21 µg/mL
--
BINDER: ADI-19431 (antibody, V domains shown, full-length IgG) VH: EVQLVESGGGLVKPGGSLRLSCAASGFTFSSYSMNWVRQAPGKGLEWVSSISSSSSYIYYADSVKGRFTISRDNAKNSLYLQMNSLRAEDTAVYYCARELYDYVWGSYRDYWGQGTLVTVSS VL: QPGLTQPPSVSGAPGQRVTISCTGSSSNIGAGYDVHWYQQLPGTAPKLLIYGNSNRPSGVPDRFSGSKSGTSASLAITGLQAEDEADYYCQSYDSSLSGSVFGGGTKVTVL
Neut IC50 subtype A: 4.35 µg/mL

Below: the item to evaluate.
Lookup: What measured Neut IC50 subtype A goes with ADI-24817 (antibody, V domains shown, full-length IgG) VH: EVQLVESGGGLVKPGGSLRLSCAASGFTFSSYSMNWVRQAPGKGLEWVSSISSSSSYIYYADSVKGRFTISRDNAKNSLYLQMNSLRAEDTAVYYCARDSMALLYSNYWFDPWGQGTLVTVSS VL: QSVVTQPPSVSGAPGQRVTISCTGSSSNIGAGYDVHWYQQLPGTAPKLLIYGNSNRPSGVPDRFSGSKSGTSASLAITGLQAEDEADYYCQSYDSSLSGSVFGGGTKLTVL ?
Found: 2.2 µg/mL

Data origin, for the record: patent US20260258115A1
